Reference source for all entries: patent US8562949B2

assay: Blocking of pancreatic signal by DTBZ in rats; format: in vivo; conditions: rat, blood, 30 min Control, read-out: Blood
Quantity: tissue uptake at 30 min (%ID/g)
Could you give me the number in %ID/g? Just the number is fine.

Fill blank: measured tissue uptake at 30 min of the molecule COc1cc2c(cc1OCCC[18F])CCN1C[C@@H](CC(C)C)[C@H](O)C[C@H]21 [[^18F]-(+)-6b] is ____.
0.2

###

assay: Blocking of pancreatic signal by DTBZ in rats; type: in vivo; details: rat, blood, 30 min Blocking, DTBZ 3.8 mg/kg pretreatment, read-out: Blood
Quantity: tissue uptake at 30 min (%ID/g)
Provide the reading as a plain figure in %ID/g.

Which value of tissue uptake at 30 min has been reported for COc1cc2c(cc1OCCC[18F])CCN1C[C@@H](CC(C)C)[C@H](O)C[C@H]21 [[^18F]-(+)-6b] in the records?
0.32
